- STUDY SYSTEM: Sentrin-specific protease 8 (Homo sapiens) (UniProt Q96LD8)
- Sequence (Q96LD8 whole entry, looked up): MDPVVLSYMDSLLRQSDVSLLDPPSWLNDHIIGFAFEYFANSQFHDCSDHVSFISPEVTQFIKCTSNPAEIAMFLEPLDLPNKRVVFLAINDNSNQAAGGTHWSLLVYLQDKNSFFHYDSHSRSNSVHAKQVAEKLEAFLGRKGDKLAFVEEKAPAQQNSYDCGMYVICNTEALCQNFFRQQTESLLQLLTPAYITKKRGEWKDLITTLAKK
- METHOD SUMMARY: blockers of SENP8 deneddylase activity – biochemical, fluorescence, Nedd8 protein substrate, uHTS, primary screen (AID 602440)
- MEASUREMENT SETUP: recombinant SENP8, Nedd8 substrate fluorescence; at 20 µM; hits give high values
The campaign covered roughly 360,000 compounds. About 2,300 (0.64%) were called active. Only a selection was taken, and actives are over-represented in it overall.
Would you mind telling me the reported inhibition of each entry?
Numbers only, in %.

CC1(C)C2CCC1(C)C(OC(=O)CCn1ccnc1)C2 (stereo not given) | 22.1
CC(=O)N/C(=C\c1ccc(F)cc1)C(=O)NC(Cc1ccccc1)C(=O)O (stereo not given) | 2.6
Oc1ccc(C2Nc3cccc4cccc(c34)N2)cc1 | 63.3

Lab note: each compound below needs its inhibition filled in.
1. COc1cc2c(cc1OC)C(=O)NCC(C)(C)O2
2. CCN(CC(=O)NC1CCS(=O)(=O)C1)S(=O)(=O)c1ccccc1 (stereo not given)
3. CCc1ccccc1NC(=O)[C@@H]1CCC(=O)N1C1OC(=O)c2c1ccc(OC)c2OC (stereo not given in full)
4. CCOC(=O)c1ccc(N2C(=O)CC(N3CC(C)OC(C)C3)C2=O)cc1 (stereo not given)
5. Cc1nc2ccccc2n1C(=O)N1CCOCC1
6. COc1ccc(CCNC(=O)COC(=O)C2CC2C)cc1 (stereo not given)

**Result**
15.5
3.6
58.1
14
11.5
9.7

Lab note: each compound below needs its inhibition filled in.
1. O=C(CCNC(=O)c1ccc([N+](=O)[O-])cc1)NC1CCCCC1
2. CC(C)[C@H](NC(=O)N1c2ccccc2NC(=O)[C@@H]1C(C)C)C(=O)N[C@H](C(=O)O)c1ccccc1
3. Nc1c(C(=O)c2cccs2)sc2nsc(SCCN3CCCCC3)c12
4. CC1CCN(c2ccc(C(=O)NCc3ccc4c(c3)OCO4)cc2[N+](=O)[O-])CC1
5. CN(CCc1ccccn1)C(=O)CCC1CCCN(Cc2ccccc2OC(F)F)C1 (stereo not given)
6. O=[N+]([O-])c1c(NCCO)cc(Sc2nc3ccccc3s2)c2nonc12
7. Cc1cccc(S(=O)(=O)N(C)C[C@H]2OCc3cnnn3CCCC(=O)N([C@@H](C)CO)C[C@H]2C)c1
8. Cc1ccc(S(=O)(=O)n2oc(=O)c(C3CCCCC3)c2N)cc1

**Result**
1. 15.8
2. 37
3. 16.8
4. 20.8
5. 29.2
6. 75.9
7. 14.1
8. 7.6

Lab note: each compound below needs its inhibition filled in.
1. CCOC(=O)c1c(C)[nH]c2c1-c1ccccc1C(=O)C2=O
2. CCCCN(CC(=O)NC(C)(C)C)C(=O)C(=O)Nc1ccc2c(c1)OCCO2
3. CC(C)N(C(=O)[C@H]1C[C@H](CC(=O)NC(C)(C)C)C(=O)N2CCc3c([nH]c4ccc(Cl)cc34)[C@]12C)C(C)C
4. CCOC(=O)C1CCCCN1Cc1ccc(OC)c(OC)c1OC (stereo not given)

**Result**
[121, 17, 19, -4.4]

Lab note: each compound below needs its inhibition filled in.
1. COC(=O)c1cc(NC2c3ccccc3C(=O)N2c2ccc(Cl)cn2)cc(C(=O)OC)c1 (stereo not given)
2. CCc1ccccc1NC(=S)Nc1cc(OC)c(NC(=O)C(C)C)cc1OC
3. O=C(/C=C/c1ccc([N+](=O)[O-])o1)NNC(=O)c1ccc(F)cc1
4. O=C(CCNC(=O)c1ccc(Br)cc1)NCC(c1ccco1)N1CCCCC1 (stereo not given)

**Result**
1: -28; 2: 22.3; 3: 19.8; 4: 10.5

This collection of values is drawn from PubChem BioAssay AID602440.
